Attribution: a melting point compilation (Tetko et al.; mined from patent text by program, amines drawn as free bases though some values may be those of a salt)

For each record, write down the corresponding melting point.

Quick check: melting point of COc1nc(C)nc(NC(=O)NS(=O)(=O)c2cccc3c2OC(C)(C)O3)n1 ? 160 to 168 °C

Quick check: melting point of O=C(Nc1ccc(F)cc1)NS(=O)(=O)C1CCCC1 ? 155 to 157 °C

Quick check: melting point of COc1cc(C)c(C(C)O)cc1NC(=O)N1CCN(c2cc(C)cc(C)c2)CC1 (centres undefined) ? 140 to 142 °C

Quick check: melting point of COC(=O)C(Cc1ccccc1)Oc1ccc2cc(-c3ccc(-c4ccccc4)[nH]3)ccc2c1 (centres undefined) ? 140 to 141 °C

Quick check: melting point of COc1cccc(-c2ccc3c(c2)CC[C@H]2N(C)C(=O)CC[C@]32C)c1 ? 140 °C

Quick check: melting point of COc1ccc(-c2cccc3c2OC(COS(=O)(=O)c2ccc(C)cc2)C3)cc1 (centres undefined) ? 116 to 117 °C

Quick check: melting point of CCc1nc2ccccc2c(C(=O)OCC(=O)OC(C)(C)C)c1Oc1ccc(-c2ccccc2C#N)cc1 ? 83 to 85 °C

Quick check: melting point of Cc1ccc(S(=O)(=O)n2c(CCC(=O)O)cc3cc(Cl)ccc32)cc1 ? 165 to 168 °C

Quick check: melting point of CNC(=NS(=O)(=O)C(F)(F)F)SC ? 88 to 89 °C

* * *

For each record, write down the corresponding melting point.

Quick check: melting point of Cc1cccc(CN(CCC(=O)O)c2nc(NC(=O)Nc3ccccc3O)nc(Nc3ccccc3-c3ccccc3)n2)c1 ? 122 to 124 °C

Quick check: melting point of CC(=O)Nc1ccc(CC(=S)N2CCOCC2)cc1 ? 210 to 212 °C

Quick check: melting point of CC(=O)c1ccc(NCc2cc3c(cc2O)CCCO3)cc1 ? 177 to 179 °C

Quick check: melting point of CC1CC(=O)NN=C1c1ccc(NC(=O)C2CC2)cc1 (centres undefined) ? 267 to 268 °C

Quick check: melting point of CON1CCC2(CC1)C(=O)C(c1c(C)cc(C)cc1C)([N+](=O)[O-])C(=O)N2C (centres undefined) ? 127 to 129 °C

Quick check: melting point of CC(C)C=Cc1c(C(C)C)nc(C(C)C)c(CO)c1-c1ccc(F)cc1 ? 112 °C

Quick check: melting point of CCOC(=O)C(O)c1ccccc1Nc1c(Cl)cccc1Cl (centres undefined) ? 155 to 156 °C

Quick check: melting point of CCn1cc(C(=O)O)c(=O)c2cc(F)c(C3NCC4CCC3N4C)c(F)c21 (centres undefined) ? 184 to 187 °C

Quick check: melting point of O=C(O)/C=C/c1ccc2c(/C=C/C(=O)O)c[nH]c2c1 ? > 360 °C

Quick check: melting point of CCOC(=O)C1(C(=O)O)CN(C2CC2)c2nc3cc(N4CC(N)C4C)c(F)cc3cc2C1=O (centres undefined) ? 170 °C

Quick check: melting point of C[C@@H]1Cc2ccsc2[C@H](C)N1CCCCNC(=O)c1ccc(NS(C)(=O)=O)cc1 (relative stereo) ? 112 to 116 °C

Quick check: melting point of O=[N+]([O-])c1ccc(NCCO)nc1NCCO ? 130 to 131 °C

Quick check: melting point of FC(F)(F)c1cc(Cl)c(-n2cc(I)c(C(F)(F)F)n2)c(Cl)c1 ? 109 to 112 °C

Quick check: melting point of C[C@@H]1CN(CCNC(=S)N(C)C)CC[C@@H]1Nc1nc2ccccc2n1Cc1ccc(F)cc1 (relative stereo) ? 127 °C

Quick check: melting point of O=C(O)CN1C(=O)O[C@H](c2ccccc2)[C@@H]1c1ccccc1 ? 161 to 163 °C

Quick check: melting point of Nc1nc(CCCCN2CCN(c3ncccn3)CC2)cs1 ? 101 to 104 °C

Quick check: melting point of CC1(C)CCN(Cc2ccc(COc3cccc4c3CN(C3CCC(=O)NC3=O)C4=O)cc2)CC1 (centres undefined) ? 168 to 170 °C

Quick check: melting point of CCCCCCCCOc1cc(-c2ccccc2)c(OCC(=O)O)c(-c2ccccc2)c1 ? 82 to 84 °C

Quick check: melting point of CN(C)CCCN=C1CC(c2ccc(Cl)cc2Cl)Cc2[nH]c3ccc(Cl)cc3c(=O)c21 (centres undefined) ? 168 to 170 °C
